- ASSAY_NAME: Binding analysis via QCM
- EXPERIMENTAL_PARAMETERS: compared with ADP1, ADP2, ADP4, ADP7

CHAIN_SEQUENCE | binding affinity to HAp (in words)
LPPLFSMPLSPILPELPLEAWPAT [ADP6] | lower
WPATDKTKREEVD [ADP3] | lower
PGYINLSYEKSHSQAINTDRTA [ADP5] | lower
PAQQPVAPQQPMMP [ADP8] | lower

# credit: patent US9290555B2
